- measurementTarget: GCN2_T
- protocolNotes: two-hybrid library CCmax;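 also: natural log of median RNA to DNA barcode read ratio; higher means stronger binding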
Below, each entry is listed with its recorded interaction score.
Could you respond with only the numeric value?

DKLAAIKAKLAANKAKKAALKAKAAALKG [AP2-AA] :: -1.81
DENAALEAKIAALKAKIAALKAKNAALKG [4H1392-AA] :: -1.63
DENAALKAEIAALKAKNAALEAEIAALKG [4H1650-AA] :: -0.999

query: interaction score for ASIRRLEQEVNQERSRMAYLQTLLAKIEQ [4H_BCR] ?
result: -2.01
